Origin of the recorded values: ChEMBL document CHEMBL3991601

# TARGET_SYSTEM: Dual specificity tyrosine-phosphorylation-regulated kinase 1A (Homo sapiens, UniProt Q13627); also: in the data inactive means no Kd found up to 30 µM
Active and inactive are the calls of the source.
Just give me one of these, please: label 1 for active, label 0 for inactive

Previously resolved entries follow.
COc1cccc2cc(-c3nc([C@H]4CC[C@H](C(=O)O)CC4)n4ncnc(N)c34)[nH]c12 [OSI-027]
label 0
COc1cc2nccc(Oc3ccc(NC(=O)C4(C(=O)Nc5ccc(F)cc5)CC4)cc3)c2cc1OC [CABOZANTINIB]
label 0
Cc1c(Cn2c(C)nc3c(C(=O)O)cc(N4CCOCC4)cc32)cccc1C(F)(F)F [GSK-2636771]
label 0
CC[C@@](C)(Nc1ccnc(-c2c[nH]c3ncccc23)n1)C(=O)NCC(F)(F)F [DECERNOTINIB]
label 0
CNC(=O)c1ccc(Nc2ncc(C(F)(F)F)c(NCc3nccnc3N(C)S(C)(=O)=O)n2)cc1 [DEFACTINIB]
label 1
CC1(COc2ccc3c(c2)ncn3-c2ccc3cccc(N4CCC(N)CC4)c3n2)COC1 [CRENOLANIB]
label 1
COc1cc2ncnc(Nc3ccc(F)c(Cl)c3)c2cc1NC(=O)/C=C/CN1CCCCC1 [DACOMITINIB ANHYDROUS]
label 0
Cc1ccc(C(=O)Nc2ccc(Oc3cc4cnn(C)c4cc3-c3cn[nH]c3)c(F)c2)c(=O)n1-c1ccc(F)cc1 [MERESTINIB]
label 0

Ask: Would you mind telling me which call this test gave COc1cc(F)c(F)c(Nc2ccc(I)cc2F)c1NS(=O)(=O)C1(C[C@H](O)CO)CC1 [REFAMETINIB] ?
Result: label 0

Ask: Would you mind telling me which call this test gave Cc1cc(C(=O)Nc2cc(Oc3ccc4nc(NC(=O)C5CC5)cn4n3)ccc2C)n(C)n1 [TAK-593] ?
Result: label 0
